Assay: recombinant UMI read abundance after kanamycin selection (control-corrected) (log10(CPM+1)); higher = more efficient recombination; extreme values may be limits of the assay; sequences stand for … in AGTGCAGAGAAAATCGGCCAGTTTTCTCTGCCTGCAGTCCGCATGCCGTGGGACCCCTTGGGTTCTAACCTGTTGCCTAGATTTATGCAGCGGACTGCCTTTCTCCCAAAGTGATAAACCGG…AGGTTGGTTTCACT; site = the 11-nt donor
For each entry below, report its recombinant UMI read abundance (log10) value.
Answer as a number with no unit attached.

Need recombinant UMI read abundance (log10), item GTGTGGGCATGGACCGGTTTTCCCGGTAATCCGTATTTGAG (site GTGTGGGCTCT) 1.21

# repeat for AGCCAAGCATGGACCGGTTTTCCCGGTAATCCGTATTTGTT (site AGCCTAGCTAA) 0.0061

Next entry: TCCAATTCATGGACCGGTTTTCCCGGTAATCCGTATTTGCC (site TCGAATTCTGG) 0

Also AGCGGCTCATGGACCGGTTTTCCCGGTAATCCGTATTTGGG (site AGCGGCTCTCC) , if possible. 0.204

Here is the next sequence: TTTGCGGCATGGACCGGTTTTCCCGGTAATCCGTATTTGTT (site TTTGCGGCTAT) 0.00523

Record: GTGGCGCCATGGACCGGTTTTCCCGGTAATCCGTATTTGTA (site GTGGCGCCTTA) 0.00916

Okay, and GGCAACCCATGGACCGGTTTTCCCGGTAATCCGTATTTGAA (site GGCAATCCTTT) ? 0.00284

Request: ATAATGCCATGGACCGGTTTTCCCGGTAATCCGTATTTGAC (site ATAATGCCTGT) 2.03

Check ACCTATACATGGACCGGTTTTCCCGGTAATCCGTATTTGAC (site AGCTATACTGT) too. 0.0116

Next up: ACCTATACATGGACCGGTTTTCCCGGTAATCCGTATTTGAC (site ACCTATACTGT) 1.58

What would you report for GGATAGACATGGACCGGTTTTCCCGGTAATCCGTATTTGAC (site GGATAGACTGT) ? 3.21

Follow-up entry: CCGCTAGCATGGACCGGTTTTCCCGGTAATCCGTATTTGTG (site CCGTTAGCTCA) 0

Try this sequence too: CTCAAATCATGGACCGGTTTTCCCGGTAATCCGTATTTGAA (site CTCAAATCTTT) 0.789

Now give it for GCGAAGCCATGGACCGGTTTTCCCGGTAATCCGTATTTGTG (site GCGAAGCCTCC) too. 0.021

Entry GGCTACCCATGGACCGGTTTTCCCGGTAATCCGTATTTGTT (site GGCGACCCTAA) please 0.015

Same thing, different sequence: GGCAATTCATGGACCGGTTTTCCCGGTAATCCGTATTTGAA (site GGCAATGCTTT) 0.0122

Another: TGTAGTGCATGGACCGGTTTTCCCGGTAATCCGTATTTGCT (site TGTAGTGCTAG) 1.16

How about GGACCAACATGGACCGGTTTTCCCGGTAATCCGTATTTGTA (site GGGCCAACTTA) ? 0.0083

###

Please provide measured recombinant barcode read abundance (log10) for the entries that follow.
Test: recombinant barcode read abundance after kanamycin selection (control-corrected) (log10(CPM+1)); higher = more efficient recombination; sequences stand for … in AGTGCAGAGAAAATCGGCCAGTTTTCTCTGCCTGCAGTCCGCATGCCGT…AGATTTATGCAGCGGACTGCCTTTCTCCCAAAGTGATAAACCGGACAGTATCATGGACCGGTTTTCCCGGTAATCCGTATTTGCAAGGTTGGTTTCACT; site = the 11-nt target

Reported recombinant barcode read abundance (log10), sequence ACATGAACTTGGGTTCTAACCTGTTGCCT (site ACTTGAACTAG) : ____ 0.101

Also GTACGATCTTGGGTTCTAACCTGTTGCAA (site GTACGATCTTT) ? 0.962

How about AGTAGTGCTTGGGTTCTAACCTGTTGCCT (site ACTAGTGCTAG) ? 0.0779

Try this sequence too: CATCCTCCTTGGGTTCTAACCTGTTGCTT (site CATCCTCCTAA) 0.0487

Lookup CTAATCCCTTGGGTTCTAACCTGTTGCAT (site CTAATCCCTAT) 1.59

Param item: CTAGGAGCTTGGGTTCTAACCTGTTGCTA (site CTAGGAGCTTA) 1.23

// same read-out, input: TATCAGACTTGGGTTCTAACCTGTTGCCA (site TATCTGACTAG) 0.119

Moving on to the next sequence: TAACTTACTTGGGTTCTAACCTGTTGCAT (site TAACATACTAT) 0.179

Same again, this time with GATTATTCTTGGGTTCTAACCTGTTGCCT (site GAGTATTCTAG) 0.138

Similarly, TACTGAACTTGGGTTCTAACCTGTTGCCT (site TACTTAACTAG) ? 0.305

###

Would you mind telling me the reported recombinant UMI read abundance (log10) of each entry?
Assay: recombinant UMI read abundance after kanamycin selection (control-corrected) (log10(CPM+1)); higher = more efficient recombination; extreme values may be limits of the assay; sequences stand for … in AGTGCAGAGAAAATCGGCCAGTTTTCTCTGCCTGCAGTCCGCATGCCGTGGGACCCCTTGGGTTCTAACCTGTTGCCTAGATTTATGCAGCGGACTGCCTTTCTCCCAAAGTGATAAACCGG…AGGTTGGTTTCACT; site = the 11-nt donor
Provide a numeric answer; units are not to be included.

Query (sequence): GAAGGGCCATGGACCGGTTTTCCCGGTAATCCGTATTTGCA (site GAAAGGCCTTG) ; field requested: recombinant UMI read abundance (log10) 0

Param item: TGTAGTGCATGGACCGGTTTTCCCGGTAATCCGTATTTGCC (site TGTAGTGCTGG) 1.56

Proceed to GGGACGTCATGGACCGGTTTTCCCGGTAATCCGTATTTGCA (site GGGACGTCTTG) 1.99

Try TCAGTAGCATGGACCGGTTTTCCCGGTAATCCGTATTTGCA (site ACAGTATCTTG) next. 2.25

Item: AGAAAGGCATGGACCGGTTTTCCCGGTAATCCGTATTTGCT (site AGAAAGGCTCG) 1.65

Another: CACGGCCCATGGACCGGTTTTCCCGGTAATCCGTATTTGTC (site CACGGCCCTGA) 1.59

Another sequence to check: GGAAATCCATGGACCGGTTTTCCCGGTAATCCGTATTTGAA (site GGAAATCCTTT) 0.994

Please give the result for GTAGGGACATGGACCGGTTTTCCCGGTAATCCGTATTTGAC (site GTAGGAACTGT) too. 2.21

What do we get for GCCGCGGCATGGACCGGTTTTCCCGGTAATCCGTATTTGGA (site GCCGCGGCTTC) ? 0.468

Query CATTTCCCATGGACCGGTTTTCCCGGTAATCCGTATTTGCT (site CAGTTCCCTAG) next 0.0164

Could you do the same for TAACACGCATGGACCGGTTTTCCCGGTAATCCGTATTTGAG (site TAACACGCTCT) , please? 1.48

Similarly, AGATATCCATGGACCGGTTTTCCCGGTAATCCGTATTTGAT (site AGATATCCTAT) ? 1.12

Param item: TCAGACACATGGACCGGTTTTCCCGGTAATCCGTATTTGCG (site TCAGACACTCG) 1.77

Cool, now CGGCTACCATGGACCGGTTTTCCCGGTAATCCGTATTTGCT (site CGGCTACCTAG) 0

TAGCCTGCATGGACCGGTTTTCCCGGTAATCCGTATTTGGT (site TAGCCTTCTAC) , same question. 0.00419

Again, but for CCGCCACCATGGACCGGTTTTCCCGGTAATCCGTATTTGAT (site CCGCCACCTAT) 0.00762

Same for CTCGCTACATGGACCGGTTTTCCCGGTAATCCGTATTTGAG (site CTCGCTACTCT) 1.03

What about this sequence? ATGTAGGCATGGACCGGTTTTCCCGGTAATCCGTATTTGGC (site ATGTAGCCTGC) 0.604

###

Test: recombinant barcode read abundance after kanamycin selection (control-corrected) (log10(CPM+1)); higher = more efficient recombination; sequences stand for … in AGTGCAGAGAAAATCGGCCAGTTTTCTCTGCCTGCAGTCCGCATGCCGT…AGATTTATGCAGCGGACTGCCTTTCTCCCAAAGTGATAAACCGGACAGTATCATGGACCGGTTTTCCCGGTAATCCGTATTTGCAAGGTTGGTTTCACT; site = the 11-nt target
Where recombinant barcode read abundance (log10) equals or exceeds 0.04, the correct label is class 1; where it does not, the label is class 0.

Item TACTGAACTTGGGTTCTAACCTGTTGCCT (site TACTAAACTAG) with recombinant barcode read abundance (log10) of 0.04 or above? class 0

And then GGACCTCCTTGGGTTCTAACCTGTTGCCT (site GGACCTCCTAG) , what is it? class 1

Item: CCTGTATCTTGGGTTCTAACCTGTTGCCT (site ACTGTATCTAG) class 0

Now this one: GTAAGCTCTTGGGTTCTAACCTGTTGCCT (site TTAAGCTCTAG) class 1
